Test system: Leishmania donovani
run_description: Antiprotozoal activity against amastigote/ axenic stage of Leishmania donovani MHOM-ET-67/L82 after 72 hrs by Alamar blue assay
Assay type: functional, organism-based
settings: MHOM-ET-67/L82, 72 h
pIC50: −log10 of the molar value.
readout_kind: pIC50

See these solved cases before continuing.
O=C(Cc1ccccc1)NCCCOCCOCCOCCCNC(=O)Cc1ccccc1 = < 3.70
COc1cc(CC(=O)NCCCNCCNC(=O)Cc2ccc(O)c(OC)c2)ccc1O = < 3.80
O=C(Cc1ccc(O)cc1)NCCCCNCCCNC(=O)Cc1ccc(O)cc1 = < 3.77

pIC50 for O=C(Cc1cccc(O)c1)NCCCNCCNC(=O)Cc1cccc(O)c1 ?
< 3.74

pIC50 for COc1cc(CC(=O)NCCN(C)C)ccc1O ?
< 3.60

pIC50 for COc1cc(CC(=O)NCCN2CCOCC2)ccc1O ?
< 3.66

pIC50 for O=C(Cc1ccc(O)cc1)NCCCNCCCCNCCCNC(=O)Cc1ccc(O)cc1 ?
< 3.89

pIC50 for COc1cc(CC(=O)NCCCOCCOCCOCCCNC(=O)Cc2ccc(O)c(OC)c2)ccc1O ?
3.82

pIC50 for O=C(Cc1cccc(O)c1)NCCCNCCCCNCCCNC(=O)Cc1cccc(O)c1 ?
< 3.89

pIC50 for O=C(Cc1ccccc1O)NCCCNCCNCCCNC(=O)Cc1ccccc1O ?
< 3.89

pIC50 for O=C(Cc1ccccc1)NCCCCNC(=O)Cc1ccccc1 ?
< 3.55

pIC50 for O=C(Cc1ccc(O)c(O)c1)NCCCNCCNC(=O)Cc1ccc(O)c(O)c1 ?
< 3.77

pIC50 for COc1cc(CC(=O)NCCCCNCCCNC(=O)Cc2ccc(O)c(OC)c2)ccc1O ?
< 3.82

pIC50 for O=C(Cc1ccc(O)c(O)c1)NCCCNCCCCNCCCNC(=O)Cc1ccc(O)c(O)c1 ?
< 3.92

pIC50 for COc1cc(CC(=O)NCCCNCCCCNCCCNC(=O)Cc2ccc(O)c(OC)c2)ccc1O ?
< 3.92

pIC50 for O=C(Cc1ccc(O)c(O)c1)NCCCCNCCCNC(=O)Cc1ccc(O)c(O)c1 ?
< 3.80

pIC50 for O=C(Cc1ccc(O)c(O)c1)NCCCOCCOCCOCCCNC(=O)Cc1ccc(O)c(O)c1 ?
< 3.77

pIC50 for O=C(Cc1ccccc1O)NCCCNCCCCNCCCNC(=O)Cc1ccccc1O ?
3.96

pIC50 for COc1cc(CC(=O)NCCCCNC(=O)Cc2ccc(O)c(OC)c2)ccc1O ?
< 3.66

pIC50 for COc1cc(CC(=O)NCCCNCCNCCCNC(=O)Cc2ccc(O)c(OC)c2)ccc1O ?
< 3.92

pIC50 for O=C(Cc1ccc(O)c(O)c1)NCCCCNC(=O)Cc1ccc(O)c(O)c1 ?
< 3.64

pIC50 for O=C(Cc1ccccc1)NCCCNCCCCNCCCNC(=O)Cc1ccccc1 ?
4.05

pIC50 for COc1ccc(OC)c(CC(=O)NCCCNCCCCNCCCNC(=O)Cc2cc(OC)ccc2OC)c1 ?
4.46

---

Test system: L6
run_description: Cytotoxicity against rat L6 cells after 72 hrs by Alamar blue assay
Format: cell-based
settings: L6, 72 h
Quick reference for IC50 among some compounds
Answer in µM, number only, no unit symbol.

O=C(Cc1ccc(O)c(O)c1)NCCCOCCOCCOCCCNC(=O)Cc1ccc(O)c(O)c1 = 96
COc1cc([C@@H]2c3cc4c(cc3[C@H](O)[C@H]3COC(=O)[C@H]23)OCO4)cc(OC)c1OC = 0.019

Shifting focus to the compound that follows.
IC50 for O=C(Cc1ccc(O)c(O)c1)NCCCCNCCCNC(=O)Cc1ccc(O)c(O)c1 ?
97
